Target sequence: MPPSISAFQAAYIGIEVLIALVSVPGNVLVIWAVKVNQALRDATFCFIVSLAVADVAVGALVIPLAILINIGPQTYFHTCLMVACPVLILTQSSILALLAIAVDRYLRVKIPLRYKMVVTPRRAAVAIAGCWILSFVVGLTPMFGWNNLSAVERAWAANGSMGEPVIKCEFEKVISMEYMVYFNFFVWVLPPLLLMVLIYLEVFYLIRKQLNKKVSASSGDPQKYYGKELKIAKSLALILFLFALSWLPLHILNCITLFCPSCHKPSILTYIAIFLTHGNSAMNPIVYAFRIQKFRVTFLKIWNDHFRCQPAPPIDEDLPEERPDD
The entries below pair compounds with Ki values for the protein given by its sequence, as found in several publications.
reported property: Ki (nM)

- Cn1cc2c(nc(NC(=O)NC3CCN(Cc4ccccc4)CC3)n3nc(-c4ccco4)nc23)n1: 703
- CCNC(=O)[C@H]1O[C@@H](n2cnc3c(Nc4ccc(OCC(=O)NCc5ccccc5)cc4)ncnc32)[C@H](O)[C@@H]1O: 20.4
- COc1ccc(CNc2ncc(C(=O)NCCc3ccccc3)c3nc(-c4ccco4)nn23)cc1OC: 385
- N#Cc1c(N)nc(SCc2c[nH]cn2)nc1-c1ccc2c(c1)OCO2: 83
- CCCn1c(=O)[nH]c2nc(-c3cnn(Cc4ccccc4)c3)[nH]c2c1=O: 1600
- CCc1nc(-c2nccs2)c2sccc2n1: 388
- C=CCn1c(SCc2ccccn2)nc2c([nH]c3ccccc32)c1=O: 708
- CC(C)CCn1cc2c(nc(NC(=O)Cc3ccc4ccccc4c3)n3nc(-c4ccco4)nc23)n1: 140
- CCCn1c(=O)c2[nH]c([C@H]3CC[C@H](NC(=O)OCc4ccccc4)CC3)nc2n(CCC)c1=O: 109
- Nc1nc(Cc2ccccc2)nc2cn(-c3ccccc3)nc12: 150
- COC(=O)/C(C#N)=C/c1cccc(OC)c1O: 2510
- O=C(Nc1ccc(-c2ccncc2)c(-c2ccco2)n1)C1CC1: 82
- CC1C(=O)c2nc(CCCCN3N=C(c4ccccc4)CCC3=O)[nH]c2N(C)C1=O (stereo unspecified): 2120
- CCC(CO)Nc1nc2nn(C)cc2c2nc(-c3ccco3)nn12 (stereo unspecified): 219
- Cc1[nH]c2nc(-c3ccccc3)nc(NCCN3CCNC3=O)c2c1C: 144

====

The entries below pair molecules with Ki values for the protein given by its sequence, as found in several publications.
Protein target, amino acids: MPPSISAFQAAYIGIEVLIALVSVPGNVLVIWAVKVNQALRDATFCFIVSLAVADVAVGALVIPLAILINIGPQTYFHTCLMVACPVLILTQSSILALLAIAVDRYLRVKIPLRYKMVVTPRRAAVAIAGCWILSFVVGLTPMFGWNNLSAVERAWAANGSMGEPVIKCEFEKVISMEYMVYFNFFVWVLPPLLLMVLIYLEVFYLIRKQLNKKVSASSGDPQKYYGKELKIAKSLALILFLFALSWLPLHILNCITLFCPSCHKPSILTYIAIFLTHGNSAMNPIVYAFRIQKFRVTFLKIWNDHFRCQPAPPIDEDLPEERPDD
reported property: Ki

• CCN(C(C)=O)c1ccc(OC)c2nc(NC(=O)c3ccc(-n4cnnn4)cc3)sc12 = 130 nM
• Nc1nc2c(cnn2CCc2ccccc2)c2nc(-c3ccc(CN4CCOCC4)o3)nn12 = > 1000 nM
• COc1ccc(N(CCCO)C(C)=O)c2sc(NC(=O)c3ccc(F)cc3)nc12 = 100 nM
• COc1ccc(NC(=O)Nc2nc3nn(CCCc4ccccc4)cc3c3nc(-c4ccco4)nn23)cc1 = 251 nM
• Nc1nc(NCC2CCN(CC(=O)NCCc3ccc(S(N)(=O)=O)cc3)CC2)nc2sc(-c3ccco3)nc12 = 603 nM
• O=C(Nc1ccc(-c2ccncc2)c(-c2ccc(F)cc2)n1)C1CC1 = 35 nM
• CCOC(=O)C1=C(C)Nc2nc3ccccc3n2C1c1cnco1 (racemic) = 233 nM
• CCN/C(=N\c1nc2nn(C)cc2c2nc(-c3ccco3)nn12)NCCCN(C)C = > 1000 nM
• Cc1nc2c(=O)n(Cc3ccccc3)nc(-c3ccncc3)c2c2cc(-c3ccccc3)nn12 = 43.6 nM
• Nc1nc(C(=O)NCc2cccc3cccnc23)c2cc(F)c(F)cc2n1 = 40 nM

====

pKi: −log10 of the molar value.
The entries below pair compounds with pKi values for Adenosine receptor A1 (Homo sapiens, UniProt P30542), as found in several publications.
reported property: pKi

* CCn1nnc(-c2sc(NC(=O)c3ccco3)nc2-c2ccccc2)n1 | 6.19
* COc1cc(-c2nc3c([nH]2)c(=O)n(C)c(=O)n3C)ccc1OCCN1CCCC1 | 4.95
* CCN(C(C)=O)c1ccc(OC)c2nc(NC(=O)[C@H]3CC[C@H](NC(=O)c4cccc(C(F)(F)F)c4)CC3)sc12 | 8.15

====

Target sequence: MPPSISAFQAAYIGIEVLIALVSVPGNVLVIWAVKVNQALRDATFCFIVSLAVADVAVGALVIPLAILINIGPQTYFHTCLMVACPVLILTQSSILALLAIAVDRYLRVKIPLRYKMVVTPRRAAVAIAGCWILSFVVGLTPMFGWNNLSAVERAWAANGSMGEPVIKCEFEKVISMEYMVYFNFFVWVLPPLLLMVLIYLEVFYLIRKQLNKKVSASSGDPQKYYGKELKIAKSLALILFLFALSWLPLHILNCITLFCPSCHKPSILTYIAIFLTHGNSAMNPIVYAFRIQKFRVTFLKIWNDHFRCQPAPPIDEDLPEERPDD
pKi: −log10 of the molar value.
The entries below pair compounds with pKi values for the protein given by its sequence, as found in several publications.
reported property: pKi

- COc1ccc(NC(=O)Nc2nc3cnn(CCCc4ccccc4)c3c3nc(-c4ccco4)nn23)cc1: < 6.00
- CC[C@@H]1CN2C(=O)N(C)c3nc(-c4cc(Cl)cc(Cl)c4Cl)[nH]c3C2=N1: 5.77
- CCCn1c(=O)[nH]c2nc(-c3cnn(Cc4cc(-c5ccccc5)on4)c3)[nH]c2c1=O: < 5.22

====

The entries below pair compounds with Ki values for Adenosine receptor A1 (Homo sapiens, UniProt P30542), as found in several publications.
assay system: Adenosine receptor A1 (Homo sapiens, UniProt P30542)
Sequence (P30542 whole entry): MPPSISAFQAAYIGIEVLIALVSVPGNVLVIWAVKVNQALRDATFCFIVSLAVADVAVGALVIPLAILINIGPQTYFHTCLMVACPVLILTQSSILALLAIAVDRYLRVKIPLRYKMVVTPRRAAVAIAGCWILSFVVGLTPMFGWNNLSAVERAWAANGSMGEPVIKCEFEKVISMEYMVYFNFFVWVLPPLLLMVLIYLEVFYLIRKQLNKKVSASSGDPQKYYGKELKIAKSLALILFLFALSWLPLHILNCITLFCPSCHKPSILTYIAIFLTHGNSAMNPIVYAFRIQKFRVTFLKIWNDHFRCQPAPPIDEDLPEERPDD
reported property: Ki (nM)

- CCNC(=O)[C@H]1O[C@@H](n2cnc3c(NCCCCNC(=O)COc4ccc(/C=C/C5=[N+]6C(=Cc7ccc(-c8cccs8)n7[B-]6(F)F)C=C5)cc4)ncnc32)[C@H](O)[C@@H]1O: 263
- CCOC(=O)c1c(NC(=O)c2sc(Nc3ccc(C)cc3)nc2N(C)C)sc2c1CCCC2: 23500
- CCCn1c(=O)c2[nH]c(-c3ccccc3)c(O)c2n(CCC)c1=O: 83
- CC1(C)CC(Nc2ncnc3c2ncn3[C@@H]2O[C@H](CO)[C@@H](O)[C@H]2O)CC(C)(C)N1: 1580
- O=C(Nc1nc(-c2cccs2)nc2cn(-c3ccccc3)nc12)c1cccnc1: 764
- O=C(Cn1cc(-c2ccccc2)c2ncn(C3CC3)c(=O)c21)NCc1ccc(F)cc1: 589
- CCCn1c(=O)c2nc(-c3cnn(Cc4ccccc4Cl)c3)[nH]c2n(CCC)c1=O: 59
- N#Cc1c(-c2ccccc2)cc(-c2ccccc2)nc1N: 14
- Cc1cc(C)n(-c2cc(NC(=O)CN3CC[C@H](OC(C)C)C3)nc(-c3ccc(C)o3)n2)n1: 2300

====

pKi: −log10 of the molar value.
The entries below pair compounds with pKi values for Adenosine receptor A1 (Homo sapiens, UniProt P30542), as found in several publications.
reported property: pKi

* Nc1nc(-c2ccco2)nc2sc(-c3ccco3)nc12 | 7.16
* COc1ccc(-c2cc(-c3ccccc3)nc(N)c2C#N)cc1OC | 7.18
* COc1cccc(Cc2nc(N)c3nn(-c4ccccc4)cc3n2)c1 | 7.05

====

The entries below pair molecules with Ki values for Adenosine receptor A1 (Homo sapiens), as found in several publications.
reported property: Ki

* CCOC(=O)c1nc(N(C(=O)c2ccc(F)c(F)c2)C(=O)c2ccc(F)c(F)c2)nc2nn(C)cc12 | > 100 µM
* CC(C)Cn1c(=O)[nH]c2nc(-c3cnn(Cc4ccccc4)c3)[nH]c2c1=O | > 6 µM
* Cn1cc2c(nc(N(C(=O)c3ccccc3)C(=O)c3ccccc3)n3nc(-c4ccc(Cl)cc4)nc23)n1 | > 10 µM
